Molecular target: helicase domain of the Pol θ protein (Homo sapiens)
Construct: The helicase domain of the Pol θ protein was purified from insect protein expression system; made in house; host or cells: insect protein expression system
Test: Biochemical Activity Assay (ADP Glo Assay) of Pol θ inhibitor, ATPase activity
Conditions: ADP-Glo assay, ATPase activity of Pol θ helicase domain, ssDNA substrate; read-out: Biochemical assay IC50
pIC50: −log10 of the molar value.
endpoint: pIC50

given-smiles | pIC50
COc1cccc(F)c1-c1cc(C)ncc1C(=O)Nc1nc2ccc([C@H]3CC[C@@H](O)CC3)nc2s1 | 7.18
COc1cnc(Cl)cc1-c1cc(C)ncc1C(=O)Nc1nc2ccc(N3CCC(O)CC3)cc2s1 | 8.09
COc1cnc(Cl)cc1-c1cc(C)ncc1C(=O)Nc1nc2cnc(-c3c(C#N)cnn3C)cc2s1 | 8.05
COc1cnc(Cl)cc1-c1cc(C)ncc1C(=O)Nc1nc2ccc(-c3c(C)cnn3C)nc2s1 | 8.04

----------
Target: helicase domain of the Pol θ protein (Homo sapiens)
Construct: The helicase domain of the Pol θ protein was purified from insect protein expression system; made in house; host or cells: insect protein expression system
Assay: Biochemical Activity Assay (ADP Glo Assay) of Pol θ inhibitor, ATPase activity
Conditions: ADP-Glo assay, ATPase activity of Pol θ helicase domain, ssDNA substrate; read-out: Biochemical assay IC50
pIC50: −log10 of the molar value.
endpoint: pIC50

[P] COc1cnc(Cl)cc1-c1cc(C)ncc1C(=O)Nc1nc2ncc(N3CCC(O)C(C)C3)cc2s1 (stereo not drawn)
[Q] COc1cnc(Cl)cc1-c1cc(C)ncc1C(=O)Nc1nc2ncc(N3CC4CC3CC4O)cc2s1 (stereo not drawn)
I'd appreciate it if you could identify which of P and Q has the greater pIC50. Answer = label.
P

----------
Target: helicase domain of the Pol θ protein (Homo sapiens, UniProt O75417)
Construct: The helicase domain of the Pol θ protein was purified from insect protein expression system; made in house; host or cells: insect protein expression system
Sequence (O75417 102-554 limits assumed): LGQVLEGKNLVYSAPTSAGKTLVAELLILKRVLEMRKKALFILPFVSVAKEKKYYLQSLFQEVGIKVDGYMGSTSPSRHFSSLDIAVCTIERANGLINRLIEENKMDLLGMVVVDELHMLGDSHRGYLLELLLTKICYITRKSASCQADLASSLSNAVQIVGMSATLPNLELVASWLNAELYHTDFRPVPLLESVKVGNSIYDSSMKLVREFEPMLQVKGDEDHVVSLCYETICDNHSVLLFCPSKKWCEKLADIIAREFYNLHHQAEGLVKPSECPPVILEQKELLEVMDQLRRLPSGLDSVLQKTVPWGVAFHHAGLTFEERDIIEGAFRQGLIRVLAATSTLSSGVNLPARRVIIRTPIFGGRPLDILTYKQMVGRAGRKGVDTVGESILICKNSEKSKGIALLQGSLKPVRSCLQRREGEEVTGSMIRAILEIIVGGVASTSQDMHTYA
Test: Biochemical Activity Assay (ADP Glo Assay) of Pol θ inhibitor, ATPase activity
Conditions: ADP-Glo assay, ATPase activity of Pol θ helicase domain, ssDNA substrate; read-out: Biochemical assay IC50
endpoint: IC50 (nM)

Answered examples (8):
compound | IC50 / nM
COc1cnc(Cl)cc1-c1cc(C)ncc1C(=O)Nc1nc2ncc(-c3ccnc(N4CCN[C@H](C)C4)c3)cc2s1 | 6.99
COc1cccc(F)c1-c1cc(C)ncc1C(=O)Nc1nc2ccc([C@H]3CC[C@H](O)CC3)nc2s1 | 196
COc1cnc(C(F)F)cc1-c1cc(C)ncc1C(=O)Nc1nc2ccc(-c3c(C)nnn3C)cc2s1 | 2.51
COc1cnc(Cl)cc1-c1cc(C)ncc1C(=O)Nc1nc2cc(F)c(-c3ccc(P(C)(C)=O)cc3)cc2s1 | 1.81
COc1cnc(Cl)c(F)c1-c1cc(C)ncc1C(=O)Nc1nc2cnc(-c3c(C)noc3C)cc2s1 | 2.51
COc1cnc(Cl)cc1-c1cc(C)ncc1C(=O)Nc1nc2ccc(C3=CCN(C)CC3)nc2s1 | 33.1
COc1cnc(Cl)cc1-c1cc(C)ncc1C(=O)Nc1nc2ncc(C3=CCC4(CC3)COC4)cc2s1 | 2.89
COc1cnc(Cl)cc1-c1cc(C)ncc1C(=O)Nc1nc2cc(F)c(N3CCC(O)CC3)nc2s1 | 7.35

[I] COc1cnc(Cl)cc1-c1cc(C)ncc1C(=O)Nc1nc2ncc(N3CCC(C(C)(C)O)CC3)nc2s1
[II] COc1cnc(Cl)cc1-c1cc(C)ncc1C(=O)Nc1nc2c(C#N)cc(N3CCC(O)CC3)cc2s1
[III] COc1cnc(Cl)cc1-c1cncnc1C(=O)Nc1nc2ccc(C3=CCC(O)CC3)nc2s1 (centres unmarked)
[IV] COc1cnc(Cl)cc1-c1cc(C)ncc1C(=O)Nc1nc2nnc(-c3c(C)cnn3C)cc2s1
Order the records so the highest IC50 appears first and the lowest last. Please reply with the labels ordered as requested. Many thanks.
III, II, I, IV

[a] COc1cnc(Cl)cc1-c1cc(C)ncc1C(=O)Nc1nc2ncc(N3CCC(OC)CC3)cc2s1
[b] COc1cnc(Cl)c(F)c1-c1cc(C)ncc1C(=O)Nc1nc2cc(F)c(N3CCC(O)CC3)nc2s1
Between a and b , whose measured IC50 reads higher? Let me know the label of the one you choose.
b
(b: 10 nM, a: 4.98 nM)

[1] COc1cnc(Cl)c(F)c1-c1cc(C)ncc1C(=O)Nc1nc2ccc(-c3c(C)nnn3C)cc2s1
[2] COc1cnc(C(F)F)cc1-c1cc(C)ncc1C(=O)Nc1nc2cnc(-c3c(C)nnn3C)cc2s1
[3] COc1cnc(Cl)cc1-c1cc(C)ncc1C(=O)Nc1nc2ncc(N3CCCC(O)CC3)cc2s1 (centres unmarked)
[4] COc1cnc(Cl)cc1-c1cc(C)ncc1C(=O)Nc1nc2cnc(N3CCC(O)CC3)nc2s1
Kindly order the items shown according to IC50, from the highest value down. Return value: ordered labels per request.
3, 1, 4, 2

----------
Molecular target: helicase domain of the Pol θ protein (Homo sapiens)
Construct: The helicase domain of the Pol θ protein was purified from insect protein expression system; made in house; host or cells: insect protein expression system
Assay: Biochemical Activity Assay (ADP Glo Assay) of Pol θ inhibitor, ATPase activity
Conditions: ADP-Glo, ssDNA substrate, 60 min at room temperature; read-out: Biochemical assay IC50
pIC50: −log10 of the molar value.
pIC50 values for the molecules below.

What value of measured pIC50 is listed for COc1cnc(Cl)cc1-c1cc(C)ncc1C(=O)Nc1nc2ncc(C3=CCC(N)CC3)cc2s1 (stereo not shown) [Example 21] ?
> 7.30

Quick one: pIC50 of COc1cnc(Cl)cc1-c1cc(C)ncc1C(=O)Nc1nc2ncc(C3=CCNCC3)cc2s1 [Example 16] ?
> 7.30

Which pIC50 is reported for this molecule? COc1cnc(Cl)cc1-c1cc(C)ncc1C(=O)Nc1nc2ncc(N3CC4CC3CC4O)cc2s1 (stereo not shown) [Example 62]
> 7.30

Fill in: pIC50 of COc1cnc(Cl)cc1-c1cc(C)ncc1C(=O)Nc1nc2ccc(N3CCC(O)C3)nc2s1 (stereo not shown) [Example 47] is ___
6.70 to 7.30

----------
Biological target: helicase domain of the Pol θ protein (Homo sapiens, UniProt O75417)
Construct: The helicase domain of the Pol θ protein was purified from insect protein expression system; made in house; host or cells: insect protein expression system
Test: Biochemical Activity Assay (ADP Glo Assay) of Pol θ inhibitor, ATPase activity
Conditions: ADP-Glo assay, ATPase activity of Pol θ helicase domain, ssDNA substrate; read-out: Biochemical assay IC50
pIC50: −log10 of the molar value.
endpoint: pIC50

compound | pIC50
COc1cnc(Cl)cc1-c1cc(C)ncc1C(=O)Nc1nc2cnc(-c3ncon3)cc2s1 [Example 181] | 8.17
COc1cnc(Cl)c(F)c1-c1cc(C)ncc1C(=O)Nc1nc2ccc(N3CCC(CO)CC3)nc2s1 [Example 129] | 8.09
COc1cnc(Cl)cc1-c1cc(C)ncc1C(=O)Nc1nc2ncc(N3CC4CC(O)CC4C3)cc2s1 (stereo not drawn) [Example 61] | 7.98
COc1cnc(Cl)cc1-c1cc(C)ncc1C(=O)Nc1nc2ccc([C@H]3CC[C@@H](O)CC3)nc2s1 [Example 28] | 7.92

[a] COc1cnc(Cl)cc1-c1cc(C)ncc1C(=O)Nc1nc2c(C(N)=O)cc(-c3c(C)cnn3C)cc2s1 [Example 165]
[b] COc1cnc(Cl)cc1-c1cc(C)ncc1C(=O)Nc1nc2ccc(N3CCC=CC3=O)nc2s1 [Example 138]
// which entry has the larger pIC50 value, a or b ? Answer by quoting the chosen item's label.
b
(b: 8.12, a: 7.77)

----------
Measured IC50 by item
Assay: cells
Details: Homo sapiens, DLD-1, 240 h, read-out: Cell viability assay IC50 (nM), CTG assay, CellTiter Glo, read on Day 10; cell line not given
Note: unit nM is implicit; provide only the numeric part.

Example molecules with recorded IC50:
molecule | units | IC50
[2H]COc1cnc(Cl)cc1-c1cc(C)ncc1C(=O)Nc1nc2cnc(C3=CCC(O)CC3)cc2s1 (stereo not drawn) [Example 108] | nM | 8.79
COc1cnc(Cl)cc1-c1cc(N2CCN(C)C3(CC3)C2=O)ncc1C(=O)Nc1nc2cnc(-c3c(C)nnn3C)cc2s1 [Example 196] | nM | 3.83
COc1cnc(Cl)cc1-c1cc(C)ncc1C(=O)Nc1nc2cc(F)c(N3CCC(O)CC3)nc2s1 [Example 126] | nM | 9.26

Next, consider the following molecule.
Which IC50 is reported for this molecule? COc1cnc(Cl)c(F)c1-c1cc(C)ncc1C(=O)Nc1nc2ccc(C3CCC(O)CC3)cc2s1 (stereo not drawn) [Example 30]
19.2

----------
Biological target: helicase domain of the Pol θ protein (Homo sapiens, UniProt O75417)
Construct: The helicase domain of the Pol θ protein was purified from insect protein expression system; made in house; host or cells: insect protein expression system
Assay: Biochemical Activity Assay (ADP Glo Assay) of Pol θ inhibitor, ATPase activity
Conditions: ADP-Glo assay, ATPase activity of Pol θ helicase domain, ssDNA substrate; read-out: Biochemical assay IC50
endpoint: IC50 (nM)

[1] COc1cnc(Cl)cc1-c1cc(C)ncc1C(=O)Nc1nc2ncc(N3CC[C@@H](O)[C@H](F)C3)cc2s1 [Example 101]
[2] COc1cnc(Cl)cc1-c1cc(C)ncc1C(=O)Nc1nc2ccc(N3CCC(O)C3)nc2s1 (stereo not drawn) [Example 47]
Decide: 1 or 2 , by lowest recorded IC50. Respond with the label that goes with your answer.
1

[I] [2H]C([2H])([2H])c1cnn(C)c1-c1cc2sc(NC(=O)c3cnc(C)cc3-c3cc(Cl)ncc3OC)nc2cn1 [Example 176]
[II] [2H]C([2H])([2H])Oc1cnc(Cl)cc1-c1cc(C)ncc1C(=O)Nc1nc2cnc(-c3c(C)cnn3C)cc2s1 [Example 156]
Task for the reader: decide whether I or II has the larger IC50. Which one? Tell me its label.
I
(I: 4.64 nM, II: 2.75 nM)
